- Experimental Parameters: High dose (1000 mg/kg bw); plasma; mean ± SD
Structures can show the parent of a compound that is named as a salt.
Property: Cmax (nM)
Could you give me the number in nM? Just the number is fine.

Compound: O=C(O)CCc1cccc(O)c1 [3-OH-PPA, 3-hydroxyphenylpropionic acid]
Readout Units: nM
Cmax: 507

Proceeding to the next compound to report its Cmax.
For this compound ( COc1cc(/C=C/C(=O)O)ccc1OS(=O)(=O)O [Ferulic acid sulfate] ), measured Cmax is 825

###

Below is a list of entries, each paired with its recorded AUC value.
- Experimental Parameters: female, Sprague Dawley, rat, plasma, po, 350 mg/kg
Could you give me the number in µM·h? Just the number is fine.

Compound: O=C(O)CNC(=O)c1ccccc1
AUC, µM·h: 47.7

For this compound ( O=C(O)[C@H]1O[C@@H](Oc2c(-c3ccc(O)c(O)c3)oc3cc(O)cc(O)c3c2=O)[C@H](O)[C@@H](O)[C@@H]1O [Quercetin glucuronide, quercetin-3-O-glucuronide] ), measured AUC is 0.34
